Below are compounds with their pKi as measured on Vasopressin V1a receptor (Homo sapiens).
Sequence (P37288 whole entry): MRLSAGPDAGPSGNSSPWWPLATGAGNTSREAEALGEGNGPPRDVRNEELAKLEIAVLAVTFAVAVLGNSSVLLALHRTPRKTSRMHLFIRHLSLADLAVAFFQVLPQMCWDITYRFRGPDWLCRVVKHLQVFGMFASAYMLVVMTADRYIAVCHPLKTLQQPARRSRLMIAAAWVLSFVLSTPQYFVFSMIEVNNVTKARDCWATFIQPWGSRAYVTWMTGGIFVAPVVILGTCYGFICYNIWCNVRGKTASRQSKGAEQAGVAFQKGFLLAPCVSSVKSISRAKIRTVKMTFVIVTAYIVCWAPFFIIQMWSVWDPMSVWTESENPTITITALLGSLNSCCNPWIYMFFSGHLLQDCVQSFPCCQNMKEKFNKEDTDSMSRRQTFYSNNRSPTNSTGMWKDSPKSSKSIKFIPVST
pKi: −log10 of the molar value.
Observation type: pKi

CCCOc1ccc(S(=O)(=O)N(CC(=O)N/N=C2\C(=O)Nc3ccccc32)c2ccc(C)cc2)cc1
5.43
CN(C)CCOc1ccc(S(=O)(=O)N(CC(=O)N/N=C2\C(=O)Nc3ccccc32)c2ccc(Cl)cc2)cc1
6.75
O=C(CN(c1ccc(Cl)cc1)S(=O)(=O)c1ccc(CCCO)cc1)N/N=C1\C(=O)Nc2ccccc21
6.21
CCOc1ccc(S(=O)(=O)N(CC(=O)N2Cc3ccccc3C2C(N)=O)c2ccc(OC)cc2)cc1 (configuration not stated)
5.80
CCOc1ccc(S(=O)(=O)N(CC(=O)N/N=C2\C(=O)Nc3ccccc32)c2ccc(Cl)cc2)cc1
6.33

I = Cc1ccc(N(CC(=O)N/N=C2\C(=O)Nc3ccccc32)S(=O)(=O)c2ccc(C#N)cc2)cc1
II = Cc1ccc(N(CC(=O)N2CCc3ccccc3C2)S(=O)(=O)c2ccccc2)cc1
III = CCOc1ccc(S(=O)(=O)N(CC(=O)N/N=C2\C(=O)Nc3ccncc32)c2ccc(Cl)cc2)cc1
I would appreciate it if you could sort these 3 compounds by pKi, starting from the smallest number. Answer by listing the labels in the requested order. I, III, II
(I: 5.16, III: 5.44, II: 6.49)

P = CCCc1ccc(S(=O)(=O)N(CC(=O)N/N=C2\C(=O)Nc3ccccc32)c2ccc(Cl)cc2)cc1
Q = C/C(=N\NC(=O)CN(c1cccc(Cl)c1)S(=O)(=O)c1ccccc1)c1ccccc1O
Hi, I'm comparing P with Q and wondering which one has the bigger number for pKi. Any idea? Answer with the label corresponding to your selection. Q
